biological target: SARS-CoV-2 spike RBD (WT) (Severe acute respiratory syndrome …, UniProt P0DTC2); experiment: ELISA; design: unit not given here
Listing: binding score of selected binders

Look over these answered cases.
>  <binder>
D097 (antibody, V domains shown) VH: EVQLVQSGAEVKKPGESLKISCKGSGYSFTSYWIGWVRQMPGKGLEWMGIIYPGDSDTRYSPSFQGQVTISADKSISTAYLQWSSLKASDTAMYYCARLGDAGAFDIWGQGTMVTVSS VL: QSVLTQPPSVSGAPGQRVTISCTGSSSNIGAGYDVHWYQQLPGTAPKLLIYGNSNRPSGVPDRFSGSKSGTSASLAITGLQAEDEADYYCQSYDSSLSGSKVFGGGTKLTVL

>  <binding score>
> 10000

$$$$
>  <binder>
D151 (antibody, V domains shown) VH: QVQLQQWGAGLLKPSETLSLTCAVYGGSFSGYYWSWIRQPPGKGLEWIGEINHDGDTNYNPSLKSRVTLSVDTSKNQFSLSLSSVTAADTAVYYCARRKQQQSYYYYSIDVWGQGTTVTVSS VL: DIQMTQSPSSLSASVGDRVTITCRATQGIRNDLGWYQQKPGKAPKRLIYAASSLQSGVPSRFSGSGSGTEFTLTISSLQPEDFATYYCLQHSSYPLTFGGGTKVEIK

>  <binding score>
> 10000

$$$$

Moving on to another binder below.
Recorded binding score of C2721 (antibody, V domains shown) VH: EVQLVESGGGLIQPGGSLRLSCAASGFTVSSNYMSWVRQAPGKGLEWVSVIYSGGSTYYADSVKGRFTISRDNSKNTLYLQMNSLRAEDTAVYYCARDMGGDAFDIWGQGTMVTVSS VL: DIQLTQSPSFLSASVGDRVTITCRASQGISSYLAWYQQKPGKAPKLLIYAASTLQSGVPSRFSGSGSGTEFTLTISSLQPEDFATYYCQQLNSYPFFGGGTKVEIK , please.
174

src = paper PMC9876794
